B1: tRNA (parent)
chain: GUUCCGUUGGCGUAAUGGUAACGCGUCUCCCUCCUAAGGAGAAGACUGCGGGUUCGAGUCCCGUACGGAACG

Variants of: B1
Experiment description: yeast fitness relative to wild type (ratio to wild type); higher = fitter; tRNA-Arg(CCU), competitive growth, 37 C, YPD
Fewer inactive variants are shown than the library holds.
Property name: yeast fitness

{"Variant key": "C5G C29A G58C U64G", "Prefix operator": "=", "Value measured": 0.545}
{"Variant key": "C33G G51A A65C", "Prefix operator": "=", "Value measured": 0.709}
{"Variant key": "G23A C30U A37U G41C", "Prefix operator": "=", "Value measured": 0.634}
{"Variant key": "A14U U28A C46G", "Prefix operator": "≤", "Value measured": 0.5}
{"Variant key": "C5A C11A G17C A43G", "Prefix operator": "≤", "Value measured": 0.5}
{"Variant key": "U26C C30G C34A C62U", "Prefix operator": "≤", "Value measured": 0.5}
{"Variant key": "C24U G67C", "Prefix operator": "=", "Value measured": 0.698}
{"Variant key": "G12A G38A U54C", "Prefix operator": "≤", "Value measured": 0.5}
{"Variant key": "C5G C31A", "Prefix operator": "=", "Value measured": 0.79}
{"Variant key": "G10A G44A U54C G67C", "Prefix operator": "≤", "Value measured": 0.5}
{"Variant key": "C5A A37C G38C C55U", "Prefix operator": "=", "Value measured": 0.598}
{"Variant key": "C5G A21U", "Prefix operator": "=", "Value measured": 0.731}
{"Variant key": "C5U C22G C29A C61A", "Prefix operator": "≤", "Value measured": 0.5}
{"Variant key": "G17A U19A C24U G25C", "Prefix operator": "≤", "Value measured": 0.5}
{"Variant key": "U26G G50C C66U", "Prefix operator": "≤", "Value measured": 0.5}
{"Variant key": "G9C C30G G38C G58C C66A", "Prefix operator": "=", "Value measured": 0.535}
{"Variant key": "A43U G68C", "Prefix operator": "=", "Value measured": 0.815}
{"Variant key": "C5G G25C G44A", "Prefix operator": "≤", "Value measured": 0.5}
{"Variant key": "U19A C29G G48A C61A", "Prefix operator": "=", "Value measured": 0.683}
{"Variant key": "U28A C55U", "Prefix operator": "=", "Value measured": 0.739}
{"Variant key": "U7G C49U", "Prefix operator": "=", "Value measured": 0.957}
{"Variant key": "G12A U13C C33U C34U A42C G50A", "Prefix operator": "≤", "Value measured": 0.5}
{"Variant key": "G10C G50U", "Prefix operator": "≤", "Value measured": 0.5}
{"Variant key": "C29G A36U A65U", "Prefix operator": "≤", "Value measured": 0.5}
{"Variant key": "A20U G25C A37G C60G C61G", "Prefix operator": "=", "Value measured": 0.561}
{"Variant key": "U13C C34G A40U A45C A57C C61U", "Prefix operator": "≤", "Value measured": 0.5}
{"Variant key": "C11U G17U C27U C31A U35C C55G C66U A70C", "Prefix operator": "≤", "Value measured": 0.5}
{"Variant key": "G6C U16C A42U G52U", "Prefix operator": "=", "Value measured": 0.634}
{"Variant key": "A14C U32G A45G U64C", "Prefix operator": "≤", "Value measured": 0.5}
{"Variant key": "U13C C29A C33A U35C G51A", "Prefix operator": "≤", "Value measured": 0.5}
{"Variant key": "A40C U53C U59A C66U", "Prefix operator": "≤", "Value measured": 0.5}
{"Variant key": "G9A A40C C49U", "Prefix operator": "=", "Value measured": 0.713}
{"Variant key": "G10C A21C C22G A36G A57C", "Prefix operator": "≤", "Value measured": 0.5}
{"Variant key": "G23A C30U C62A", "Prefix operator": "=", "Value measured": 0.561}
{"Variant key": "A15G U28C C30U U59A A70C", "Prefix operator": "≤", "Value measured": 0.5}
{"Variant key": "C11A A36G C49G C60U G68A", "Prefix operator": "≤", "Value measured": 0.5}
{"Variant key": "U26C C30G C34A C49G G50A U64A", "Prefix operator": "≤", "Value measured": 0.5}
{"Variant key": "A20C G41C A42C G56A U64C", "Prefix operator": "≤", "Value measured": 0.5}
{"Variant key": "C60A A70C", "Prefix operator": "=", "Value measured": 0.621}
{"Variant key": "U2G G18C G23U C27U U64A", "Prefix operator": "≤", "Value measured": 0.5}
{"Variant key": "U2G C24A A45G", "Prefix operator": "=", "Value measured": 0.586}
{"Variant key": "A15G A21C C34U C61U", "Prefix operator": "≤", "Value measured": 0.5}
{"Variant key": "G56C C60A", "Prefix operator": "=", "Value measured": 0.587}
{"Variant key": "G25A A40C C55G C61A", "Prefix operator": "≤", "Value measured": 0.5}
{"Variant key": "A14C U16C G44A U54C C61U A69C", "Prefix operator": "≤", "Value measured": 0.5}
{"Variant key": "A21U G56A", "Prefix operator": "=", "Value measured": 0.646}
